experiment: Concentration required to reduce Ribonucleotide reductase rate by 50% in L1210 cells; type: cell-based
pIC50: −log10 of the molar value.
ENDPOINT_LABEL: pIC50

Illustrative cases are given below, each with its answer.
# pIC50 (compound: Cc1cn(C2C[C@H](O)[C@@H](COP(=O)(O)CP(=O)(O)OP(=O)(O)OP(=O)(O)OC[C@H]3OC(n4cnc5c(N)ncnc54)[C@H](O)[C@@H]3O)O2)c(=O)[nH]c1=O (stereo not given in full) ) is 3.52

# pIC50 of Cc1cn([C@H]2C[C@H](O)[C@@H](COP(=O)(O)OP(=O)(O)OP(=O)(O)OP(=O)(O)OP(=O)(O)OC[C@H]3O[C@@H](n4cnc5c(N)ncnc54)[C@H](O)[C@@H]3O)O2)c(=O)[nH]c1=O = 4.85

(a) Cc1cn(C2C[C@H](O)[C@@H](COP(=O)(O)CP(=O)(O)OP(=O)(O)OP(=O)(O)OP(=O)(O)OP(=O)(O)OC[C@H]3OC(n4cnc5c(N)ncnc54)[C@H](O)[C@@H]3O)O2)c(=O)[nH]c1=O (stereo not given in full)
(b) Cc1cn(C2C[C@H](O)[C@@H](COP(=O)(O)OP(=O)(O)OP(=O)(O)OP(=O)(O)OP(=O)(O)OP(=O)(O)OC[C@H]3OC(n4cnc5c(N)ncnc54)[C@H](O)[C@@H]3O)O2)c(=O)[nH]c1=O (stereo not given in full)
(c) Cc1cn(C2C[C@H](O)[C@@H](COP(=O)(O)CP(=O)(O)OP(=O)(O)OP(=O)(O)OP(=O)(O)OC[C@H]3OC(n4cnc5c(N)ncnc54)[C@H](O)[C@@H]3O)O2)c(=O)[nH]c1=O (stereo not given in full)
Arrange items by their pIC50 values in increasing order. Write the labels out in the order the request specifies.
a, c, b
(a: 3.64, c: 3.89, b: 4.70)

---

experiment: Concentration required to reduce thymidine kinase rate by 50% in L1210 cells; type: cell-based
pIC50: −log10 of the molar value.
ENDPOINT_LABEL: pIC50

response.value for Cc1cn(C2C[C@H](O)[C@@H](COP(=O)(O)CP(=O)(O)OP(=O)(O)OP(=O)(O)OP(=O)(O)OP(=O)(O)OC[C@H]3OC(n4cnc5c(N)ncnc54)[C@H](O)[C@@H]3O)O2)c(=O)[nH]c1=O (some centres not stated) (field: pIC50) = 4.71

(I) Cc1cn(C2C[C@H](O)[C@@H](COP(=O)(O)CP(=O)(O)OP(=O)(O)OP(=O)(O)OC[C@H]3OC(n4cnc5c(N)ncnc54)[C@H](O)[C@@H]3O)O2)c(=O)[nH]c1=O (some centres not stated)
(II) Cc1cn(C2C[C@H](O)[C@@H](COP(=O)(O)CP(=O)(O)OP(=O)(O)OP(=O)(O)OP(=O)(O)OC[C@H]3OC(n4cnc5c(N)ncnc54)[C@H](O)[C@@H]3O)O2)c(=O)[nH]c1=O (some centres not stated)
Rank I against II by their pIC50 values and give the higher one. Please reply using the label of the selected record.
II

(1) Cc1cn([C@H]2C[C@H](O)[C@@H](CO[P@@](=O)(O)O[P@@](=O)(O)O[P@@](=O)(O)O[P@@](=O)(O)OC[C@H]3O[C@@H](n4cnc5c(N)ncnc54)[C@H](O)[C@@H]3O)O2)c(=O)[nH]c1=O
(2) Cc1cn([C@H]2C[C@H](O)[C@@H](COP(=O)(O)OP(=O)(O)OP(=O)(O)OP(=O)(O)OP(=O)(O)OC[C@H]3O[C@@H](n4cnc5c(N)ncnc54)[C@H](O)[C@@H]3O)O2)c(=O)[nH]c1=O
When 1 and 2 are compared, which has the higher number for pIC50? Indicate your choice by writing its label.
2

---

target: Thymidylate kinase (Homo sapiens, UniProt P23919); assay: Concentration required to reduce Thymidylate kinase rate by 50% in human blast cells
Sequence (P23919 whole entry): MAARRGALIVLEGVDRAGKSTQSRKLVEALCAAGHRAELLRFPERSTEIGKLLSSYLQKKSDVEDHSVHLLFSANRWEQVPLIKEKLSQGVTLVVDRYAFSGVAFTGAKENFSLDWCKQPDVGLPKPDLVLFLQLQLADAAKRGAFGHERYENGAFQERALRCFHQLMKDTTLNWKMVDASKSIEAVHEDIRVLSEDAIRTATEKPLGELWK
ENDPOINT_LABEL: IC50 (µM)

Cc1cn([C@H]2C[C@H](O)[C@@H](CO[P@@](=O)(O)O[P@@](=O)(O)O[P@@](=O)(O)O[P@@](=O)(O)OC[C@H]3O[C@@H](n4cnc5c(N)ncnc54)[C@H](O)[C@@H]3O)O2)c(=O)[nH]c1=O yielded IC50 of 290

Record Cc1cn(C2C[C@H](O)[C@@H](COP(=O)(O)CP(=O)(O)OP(=O)(O)OP(=O)(O)OP(=O)(O)OC[C@H]3OC(n4cnc5c(N)ncnc54)[C@H](O)[C@@H]3O)O2)c(=O)[nH]c1=O (some centres undefined) , field IC50: 6

# compound Cc1cn([C@H]2C[C@H](O)[C@@H](COP(=O)(O)OP(=O)(O)OP(=O)(O)OP(=O)(O)OP(=O)(O)OC[C@H]3O[C@@H](n4cnc5c(N)ncnc54)[C@H](O)[C@@H]3O)O2)c(=O)[nH]c1=O ; its IC50 = 8

(P) Cc1cn(C2C[C@H](O)[C@@H](COP(=O)(O)OP(=O)(O)OP(=O)(O)OC[C@H]3OC(n4cnc5c(N)ncnc54)[C@H](O)[C@@H]3O)O2)c(=O)[nH]c1=O (some centres undefined)
(Q) Cc1cn(C2C[C@H](O)[C@@H](COP(=O)(O)OP(=O)(O)OP(=O)(O)OP(=O)(O)OP(=O)(O)OP(=O)(O)OC[C@H]3OC(n4cnc5c(N)ncnc54)[C@H](O)[C@@H]3O)O2)c(=O)[nH]c1=O (some centres undefined)
(R) Cc1cn(C2C[C@H](O)[C@@H](COP(=O)(O)CP(=O)(O)OP(=O)(O)OC[C@H]3OC(n4cnc5c(N)ncnc54)[C@H](O)[C@@H]3O)O2)c(=O)[nH]c1=O (some centres undefined)
(S) Cc1cn(C2C[C@H](O)[C@@H](COP(=O)(O)CP(=O)(O)OP(=O)(O)OP(=O)(O)OP(=O)(O)OP(=O)(O)OC[C@H]3OC(n4cnc5c(N)ncnc54)[C@H](O)[C@@H]3O)O2)c(=O)[nH]c1=O (some centres undefined)
(T) Cc1cn(C2C[C@H](O)[C@@H](COP(=O)(O)CP(=O)(O)OP(=O)(O)OP(=O)(O)OC[C@H]3OC(n4cnc5c(N)ncnc54)[C@H](O)[C@@H]3O)O2)c(=O)[nH]c1=O (some centres undefined)
Sort the 5 compounds by IC50; largest first, smallest last. Please reply with the labels ordered as requested. Many thanks.
P, R, T, Q, S
(P: 1230 µM, R: 730 µM, T: 340 µM, Q: 6 µM, S: 4 µM)

---

assay: Concentration required to reduce Ribonucleotide reductase rate by 50% in L1210 cells; assay type: cell-based
pIC50: −log10 of the molar value.
ENDPOINT_LABEL: pIC50

(P) Cc1cn([C@H]2C[C@H](O)[C@@H](CO[P@@](=O)(O)O[P@@](=O)(O)O[P@@](=O)(O)O[P@@](=O)(O)OC[C@H]3O[C@@H](n4cnc5c(N)ncnc54)[C@H](O)[C@@H]3O)O2)c(=O)[nH]c1=O
(Q) Cc1cn(C2C[C@H](O)[C@@H](COP(=O)(O)CP(=O)(O)OP(=O)(O)OC[C@H]3OC(n4cnc5c(N)ncnc54)[C@H](O)[C@@H]3O)O2)c(=O)[nH]c1=O (stereo partly drawn)
Smaller pIC50 value? Options are P and Q Select an item and report its label.
Q
(Q: 3.34, P: 4.11)
